# Read-out: urokinase plasminogen activator (uPA), PLAU (gene 5328)
# ASSAY_INFO: BSK_BE3C_uPA: BioMAP Diversity Plus: BE3C Assay for urokinase plasminogen activator (uPA) Biomarker Activity (AID 2283038)
# EXPERIMENTAL_SETUP: primary human bronchial epithelial cells; actives raise or lower the signal
Activity calls are given as the source filed them. How the source made its calls: active means hit-call score of the fitted dose curve at least 0.9, where 1 is the maximum; inactive means score below 0.9.
Labels: active, inactive

| COMPOUND | DISCRETE_LABEL |
| --- | --- |
| CN(C)C(=S)S | active |
| CC1(C)[C@H](C(=O)O[C@H](C#N)c2cccc(Oc3ccccc3)c2)[C@@H]1/C=C(\Cl)C(F)(F)F | inactive |
| CC(C)(C)c1ccccc1O | inactive |
| CCCCOC(=O)COC(=O)c1ccccc1C(=O)OCCCC | inactive |
| C=CC(Cl)CCl (centres undefined) | inactive |
| CC(C)(C)c1cc([N+](=O)[O-])cc(C(C)(C)C)c1O | inactive |
| Oc1cccc(-c2ccccc2)c1 | inactive |
| CCOP(=O)(OCC)OC(=CCl)c1ccc(Cl)cc1Cl | inactive |
| Oc1ccc(Cc2ccc(O)cc2)cc1 | inactive |
| O=C(N[C@H]1CN2CCC1CC2)c1ccc2c(c1)OCCO2 | inactive |
| Cc1cccc(OP(=O)(Oc2cccc(C)c2)Oc2cccc(C)c2)c1 | active |
| Oc1cc(Cl)c(Cl)cc1Cl | active |
| O=C(O)COc1cc(Cl)c(Cl)cc1Cl | inactive |
| Cc1ccc2nc3sc(=O)sc3nc2c1 | inactive |
| c1ccc(-c2cccc(-c3ccccc3)c2)cc1 | inactive |
| CC(C)O.CC(C)O.OCCN(CCO)CCO.OCCN(CCO)CCO.[Ti] | inactive |
| NC(=O)CCl | inactive |
| Oc1c(Cl)cc(Cl)cc1Cl | inactive |
| O=C(CCl)NCO | inactive |
| Cc1cc(Cl)ccc1N | inactive |
| Cc1cc(C)cc(C)c1 | inactive |
| CC(C)=CC1C(C(=O)OCc2cccc(Oc3ccccc3)c2)C1(C)C (centres undefined) | inactive |
| OCCCCO | inactive |
| Cc1ccccc1OP(=O)(Oc1ccccc1C)Oc1ccccc1C | inactive |

====

# Read-out: Tumor necrosis factor (Homo sapiens)
# ASSAY_INFO: BSK_LPS_TNFa: BioMAP Diversity Plus: LPS Assay for Tumour Necrosis Factor alpha (TNFa) Biomarker Activity (AID 2283085)
# EXPERIMENTAL_SETUP: primary human HUVEC with PBMC; actives raise or lower the signal
The source made the active and inactive calls. How the source made its calls: active means hit-call score of the fitted dose curve at least 0.9, where 1 is the maximum; inactive means score below 0.9.
Classes used: true = active, false = inactive

| MOLECULE | DISCRETE_LABEL |
| --- | --- |
| CC(C)(C)c1ccccc1O | false |
| Cc1cc(Cl)ccc1OC(C)C(=O)O (stereo not drawn) | false |
| [Cl][Sn]([c]1ccccc1)([c]1ccccc1)[c]1ccccc1 | true |

====

# Read-out: Ezrin (EZR), EZR (gene 7430)
# ASSAY_INFO: LTEA_HepaRG_EZR: Life Technologies and Expression Analysis (LTEA) Assay for Ezrin (EZR) using HepaRG (AID 2283491)
# EXPERIMENTAL_SETUP: mRNA level, 48 h; actives raise or lower the signal
Calls of active or inactive are those of the source. How the source made its calls: active means hit-call score of the fitted dose curve at least 0.9, where 1 is the maximum; inactive means score below 0.9.
REPORTED_METRIC: AC50

| MOLECULE | DATA_VALUE |
| --- | --- |
| Clc1cccc(Cl)c1Cl | inactive |
| O=C(O)C1(c2ccc3c(c2)OC[C@H](Cc2ccc(-c4ccccc4)cc2)[C@H]3O)CCCC1 | 63.1 µM (active) |
| CC(C)O.CC(C)O.OCCN(CCO)CCO.OCCN(CCO)CCO.[Ti] | inactive |
| CCCCCCCCCCCCc1cccc(S(=O)(=O)O)c1 | inactive |
| CN(C)C(=S)S | inactive |
| CC(C)(C)c1ccccc1O | inactive |

====

# Read-out: E-selectin (Homo sapiens) (UniProt P16581)
# Sequence (P16581 whole entry, looked up): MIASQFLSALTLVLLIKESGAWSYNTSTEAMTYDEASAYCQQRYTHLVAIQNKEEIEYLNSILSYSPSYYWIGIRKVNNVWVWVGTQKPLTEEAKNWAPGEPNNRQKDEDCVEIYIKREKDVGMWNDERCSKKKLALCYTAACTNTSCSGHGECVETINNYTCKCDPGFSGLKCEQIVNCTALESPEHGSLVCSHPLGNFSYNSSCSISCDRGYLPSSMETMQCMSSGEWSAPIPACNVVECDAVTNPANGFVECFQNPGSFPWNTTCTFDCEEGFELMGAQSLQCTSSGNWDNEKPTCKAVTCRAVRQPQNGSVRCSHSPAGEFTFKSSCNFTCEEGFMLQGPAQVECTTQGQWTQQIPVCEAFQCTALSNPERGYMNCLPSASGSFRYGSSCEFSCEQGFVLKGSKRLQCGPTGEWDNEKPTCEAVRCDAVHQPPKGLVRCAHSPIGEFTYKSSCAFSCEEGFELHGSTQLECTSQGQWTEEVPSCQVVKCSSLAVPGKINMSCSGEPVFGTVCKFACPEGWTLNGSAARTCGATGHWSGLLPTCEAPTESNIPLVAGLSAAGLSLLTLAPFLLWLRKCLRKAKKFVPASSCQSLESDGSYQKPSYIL
# ASSAY_INFO: BSK_SAg_Eselectin: BioMAP Diversity Plus: SAg Assay for Eselectin Biomarker Activity (AID 2283091)
# EXPERIMENTAL_SETUP: primary human HUVEC with PBMC; actives raise or lower the signal
Active and inactive are the calls of the source. How the source made its calls: active means hit-call score of the fitted dose curve at least 0.9, where 1 is the maximum; inactive means score below 0.9.

| COMPOUND | AC50 |
| --- | --- |
| CN(C)C(=S)S | inactive |
| Cc1ccc2nc3sc(=O)sc3nc2c1 | 8.11 µM (active) |
| Cc1cc(Cl)ccc1OC(C)C(=O)O (stereo unspecified) | inactive |
| O=C(N[C@H]1CN2CCC1CC2)c1ccc2c(c1)OCCO2 | inactive |
| COCC(=O)N(c1c(C)cccc1C)[C@H](C)C(=O)OC | inactive |
| Clc1cccc(Cl)c1 | inactive |

====

# ASSAY_INFO: ATG_ISRE_CIS: Attagene CIS-FACTORIAL HepG2 Assay for human Interferon Regulatory Factor 1 (IRF1) binding to an Interferon-Stimulated Response Element (ISRE) (AID 2282948)
# EXPERIMENTAL_SETUP: HepG2 ISRE cis-reporter (Attagene), mRNA transcription readout; actives raise or lower the signal
The source made the active and inactive calls. How the source made its calls: active means hit-call score of the fitted dose curve at least 0.9, where 1 is the maximum; inactive means score below 0.9.

| MOLECULE | AC50 |
| --- | --- |
| O=C=Nc1ccc(Cl)cc1 | inactive |
| CCCCC(CC)COC(=O)Cl (configuration not stated) | inactive |
| C=CC(=O)[O][Sn]([CH2]CCC)([CH2]CCC)[CH2]CCC | inactive |
| O=NN1CCCCCC1 | inactive |
| OC[P+](CO)(CO)CO | inactive |
| O=C/C(Cl)=C(/Cl)C(=O)O | 100 µM (active) |
| Cc1ccccc1OP(=O)(Oc1ccccc1C)Oc1ccccc1C | 7 µM (active) |
| CC1(C)[C@H](/C=C2\CCSC2=O)[C@@H]1C(=O)OCc1coc(Cc2ccccc2)c1 | inactive |
| Clc1cc(C(Cl)(Cl)Cl)cnc1Cl | 9.08 µM (active) |
| CCOP(=S)(OCC)OP(=S)(OCC)OCC | inactive |
| CCCSP(=S)(OCC)Oc1ccc(SC)cc1 (configuration not stated) | inactive |
| CCCCN(CCCC)C(=S)[S-].CCCCN(CCCC)C(=S)[S-].[Ni+2] | inactive |
| N#Cc1ccc(Cl)cc1 | inactive |
| CC(C)C(C)(N)C#N (configuration not stated) | inactive |
| C=CC(=O)OCC(COC(=O)C=C)(COC(=O)C=C)COC(=O)C=C | 5.34 µM (active) |
| N#CCCC(Br)(C#N)CBr (configuration not stated) | 60.8 µM (active) |
| CC(C)(C1CCC(O)CC1)C1CCC(O)CC1 (configuration not stated) | inactive |
| CC(C)(C#N)N=NC(C)(C)C#N | inactive |
| OC(Cc1ccccc1Cl)(Cn1[nH]cnc1=S)C1(Cl)CC1 (configuration not stated) | 100 µM (active) |
| O=C1C=CC(=O)c2ccccc21 | inactive |
| C=C(C)C(=O)OCC(CC)CCCC (configuration not stated) | inactive |
| CN(N=O)c1ccc([N+](=O)[O-])cc1 | inactive |

====

# ASSAY_INFO: ATG_E_Box_CIS: Attagene CIS-FACTORIAL HepG2 Assay for human Enhancer Box (E-box) (AID 2282936)
# EXPERIMENTAL_SETUP: HepG2 E-box cis-reporter transcription, actives raise or lower the signal
Activity calls are given as the source filed them. The calls were made as follows: active = hit-call score of the fitted dose curve at least 0.9, where 1 is the maximum; inactive = score below 0.9.
Outcomes: true for active, false for inactive

| COMPOUND | DISCRETE_LABEL |
| --- | --- |
| CCNc1nc(NCC)nc(SC)n1 | false |
| ClCc1ccccc1CCl | true |
| Cc1ccccc1OP(=O)(Oc1ccccc1C)Oc1ccccc1C | false |
| CCOC(=O)OC1=C(c2cc(C)ccc2C)C(=O)NC12CCC(OC)CC2 (stereo not given) | false |
| C[CH2][Hg][S]c1ccccc1C(=O)O | true |

====

# Read-out: Urokinase-type plasminogen activator receptor (uPAR), PLAUR (gene 5329)
# ASSAY_INFO: BSK_CASM3C_uPAR: BioMAP Diversity Plus: CASM3C Assay for Urokinase-type plasminogen activator receptor (uPAR) Biomarker Activity (AID 2283054);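 further: cell-surface uPAR protein level quantified by ELISA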
# EXPERIMENTAL_SETUP: primary human coronary artery smooth muscle cells; actives raise or lower the signal
The source made the active and inactive calls. How the source made its calls: active means hit-call score of the fitted dose curve at least 0.9, where 1 is the maximum; inactive means score below 0.9.
Outcome codes: active, inactive

| COMPOUND | DISCRETE_LABEL |
| --- | --- |
| Oc1ccc(Cc2ccc(O)cc2)cc1 | inactive |
| OC(Cc1ccccc1Cl)(Cn1[nH]cnc1=S)C1(Cl)CC1 (stereo not drawn) | active |
| CC(C)(C)c1cc([N+](=O)[O-])cc(C(C)(C)C)c1O | active |

====

# Read-out: Macrophage colony-stimulating factor (MCSF), CSF1 (gene 1435)
# ASSAY_INFO: BSK_hDFCGF_MCSF: BioMAP Diversity Plus: hDFCGF Assay for Macrophage colony-stimulating factor (MCSF) Biomarker Activity (AID 2283060)
# EXPERIMENTAL_SETUP: primary human foreskin fibroblasts; actives raise or lower the signal
Calls of active or inactive are those of the source. How the source made its calls: active means hit-call score of the fitted dose curve at least 0.9, where 1 is the maximum; inactive means score below 0.9.
Classes used: label 1 = active, label 0 = inactive

| MOLECULE | DISCRETE_LABEL |
| --- | --- |
| O=C(Cc1ccccc1)OCCc1ccccc1 | label 0 |
| OCCCCO | label 0 |
| CC1(C)[C@H](C(=O)O[C@H](C#N)c2cccc(Oc3ccccc3)c2)[C@@H]1/C=C(\Cl)C(F)(F)F | label 0 |
| c1ccc2sc(SNC3CCCCC3)nc2c1 | label 0 |
| Cc1ccccc1OP(=O)(Oc1ccccc1)Oc1ccccc1 | label 1 |
| N#Cc1cccnc1 | label 0 |
| Cc1ccc2nc3sc(=O)sc3nc2c1 | label 0 |

Value source: PubChem BioAssay (EPA / NIEHS)
